Test: Human HepG2 cell viability assay in 384 well format
Assay type: toxicity, cell-based
Set-up: dose 125 nL, time 70.5 hour; concentration not given beside the values
Settings: HepG2 cells, read-out: Inhibition
This section presents compounds with their documented cytotoxicity at 70.5 h values.
API: value field is a number in %; no unit string.

These recorded examples may help you get a feel for the data.
COMPOUND: CCc1ccc(C(COC)NC(=O)c2ccc(NC(C)=O)cc2)o1 (configuration not stated)
cytotoxicity at 70.5 h (%): -8.16
//
COMPOUND: Cc1ccc(C(F)(F)F)cc1C(=O)N[C@H]1CN(CCO)C[C@@H]1C1CC1
cytotoxicity at 70.5 h (%): -3.09
//
COMPOUND: Cc1nc(C2CCCN2CCCS(N)(=O)=O)no1 (configuration not stated)
cytotoxicity at 70.5 h (%): 17
//
COMPOUND: CN1CCc2nc3c(c(N)c2C1)CCCN3C
cytotoxicity at 70.5 h (%): -16.1
//
COMPOUND: COCCN1CCCC2(CCN(c3ncc(Cl)cc3Cl)C2)C1=O (configuration not stated)
cytotoxicity at 70.5 h (%): -11

Consider `CCOCCC(=O)NC1(c2cccc(Br)c2)CC1` . Its measured cytotoxicity at 70.5 h is -3.83

// cytotoxicity at 70.5 h value for CS(=O)(=O)N1CCCC12CCCN(C(=O)c1cc(F)cc(F)c1)C2 (configuration not stated) : -11.7

The measured cytotoxicity at 70.5 h associated with `O=C(NCCOc1ccc(Cl)cn1)Nc1cccnc1` reads -0.774

Form field cytotoxicity at 70.5 h, entry `COc1ncccc1CN1C[C@H]2CCN(c3ncccn3)C[C@H]2C1` : 1.43

// CCn1ccnc1CNCC1CCCN1c1cccnn1 (configuration not stated) : cytotoxicity at 70.5 h value = 5.62

Kindly note the recorded cytotoxicity at 70.5 h for COCCC(=O)N1CCC2(COCc3cnc(-c4ccccc4)nc32)C1 (configuration not stated) , which is 2.54

Entry under test: `COCCCN1CCCC12CCN(Cc1cccnc1OC)CC2` . Its cytotoxicity at 70.5 h was 1.58
